# Test system: Glycine max (GLXMA)
# Procedure details: B2 Post-Emergence Efficacy - Test 2
# Format: in vivo
# Test settings: 125 g/Ha, 15 days after application, 0=no damage, 100=total kill
# Procedure: Seeds of a variety of test species (see Table B1) were sown in standard soil in pots. […] After application, the test plants were grown in a glasshouse under controlled conditions (as above) and watered twice daily. Herbicidal activity was evaluated 15 days after application on a 0-100 scale. […]
Quantity name: Herbicidal activity on a 0-100 scale, GLXMA
When you answer, write just the number.

Fill blank: measured Herbicidal activity on a 0-100 scale, GLXMA of the compound Cc1nn(C)c(=O)c(-c2c(F)ccc(Cl)c2CCc2ccc(F)cc2)c1O is ____.
90

Cc1nn(C)c(=O)c(-c2c(F)ccc(Cl)c2CCc2ccccc2C(F)(F)F)c1O , same question.
70

Cc1nn(C)c(=O)c(-c2c(F)ccc(Cl)c2CCc2ccc(C#N)cc2)c1O , same question.
90

Cc1nn(C)c(=O)c(-c2c(F)ccc(Cl)c2CCc2ccc(C(F)(F)F)nc2)c1O , same question.
90

---

# Tested on: Galium aparine (GALAP)
# Procedure details: B2 Post-Emergence Efficacy - Test 2
# Format: in vivo
# Test settings: 500 g/Ha, 15 days after application, 0-100 scale
Quantity name: Herbicidal activity GALAP
When you answer, write just the number.

Fill blank: measured Herbicidal activity GALAP of the molecule Cc1nn(C)c(=O)c(-c2c(F)ccc(Cl)c2CCc2ccc(Cl)cc2)c1OC(=O)C(C)C is ____.
90

Cc1nn(C)c(=O)c(-c2c(F)ccc(Cl)c2CCc2ccc(C(F)(F)F)nc2)c1O , same question.
90

Cc1nn(C)c(=O)c(-c2c(F)ccc(Cl)c2CCc2ccc(F)cc2)c1O , same question.
80

Cc1nn(C)c(=O)c(-c2c(F)ccc(Cl)c2CCc2ccccc2C(F)(F)F)c1O , same question.
90

Cc1nn(C)c(=O)c(-c2c(F)ccc(Cl)c2CCc2ccc(F)cc2)c1OC(=O)C(C)C , same question.
70

Cc1nn(C)c(=O)c(-c2c(F)ccc(Cl)c2CCc2ccc(C#N)cc2)c1O , same question.
90

---

# Tested on: Euphorbia hetrophylla (EPHHL)
# Procedure details: B2 Post-Emergence Efficacy - Test 2
# Type: in vivo
# Test settings: 30 g/Ha, 15 days after application, 0-100 scale
# Method: Seeds of a variety of test species (see Table B1) were sown in standard soil in pots. […] After application, the test plants were grown in a glasshouse under controlled conditions (as above) and watered twice daily. Herbicidal activity was evaluated 15 days after application on a 0-100 scale. […]
Quantity name: Herbicidal activity EPHHL

Fill blank: measured Herbicidal activity EPHHL of the molecule Cc1nn(C)c(=O)c(-c2c(F)ccc(Cl)c2CCc2ccc(C#N)cc2)c1O is ____.
90

Cc1nn(C)c(=O)c(-c2c(F)ccc(Cl)c2CCc2ccccc2C(F)(F)F)c1O , same question.
70

Cc1nn(C)c(=O)c(-c2c(F)ccc(Cl)c2CCc2ccc(F)cc2)c1O , same question.
70

Cc1nn(C)c(=O)c(-c2c(F)ccc(Cl)c2CCc2ccc(Cl)cc2)c1OC(=O)C(C)C , same question.
100

Cc1nn(C)c(=O)c(-c2c(F)ccc(Cl)c2CCc2ccc(F)cc2)c1OC(=O)C(C)C , same question.
90

Cc1nn(C)c(=O)c(-c2c(F)ccc(Cl)c2CCc2ccc(C(F)(F)F)nc2)c1O , same question.
90
